assay: n-octanol/water partition coefficient (logP) by RP-TLC; assay type: physicochemical; conditions: n-octanol/water partition coefficient of the intact prodrug (or control 2c_c); RP-TLC, MOPS pH 7.4
Recorded logP (Prodrug) for the following compounds

- compoundString: "CC1(C)OB(c2ccc(COC(=O)N(Cc3cn(Cc4ccccc4)nn3)[c-]3cccc3)cc2)OC1(C)C.[Fe+2].c1cc[cH-]c1"
  logP (Prodrug): 5.27
- compoundString: "CC1(C)OB(c2ccc(COC(=O)N(Cc3cn(CCc4ccccc4)nn3)[c-]3cccc3)cc2)OC1(C)C.[Fe+2].c1cc[cH-]c1"
  logP (Prodrug): 5.37
- compoundString: "CN(C)C(=O)c1ccc(COC(=O)N(Cc2cn(Cc3ccc(Cn4cc(Cc5ccccc5)nn4)cc3)nn2)[c-]2cccc2)cc1.[Fe+2].c1cc[cH-]c1"
  logP (Prodrug): 3.90
- compoundString: "CC1(C)OB(c2ccc(COC(=O)N(Cc3cn(Cc4ccc(Cn5cc(CCc6ccccc6)nn5)cc4)nn3)[c-]3cccc3)cc2)OC1(C)C.[Fe+2].c1cc[cH-]c1"
  logP (Prodrug): 5.56
- compoundString: "CC1(C)OB(c2ccc(COC(=O)N(Cc3cn(Cc4ccc(Cn5cc(Cc6ccccc6)nn5)cc4)nn3)[c-]3cccc3)cc2)OC1(C)C.[Fe+2].c1cc[cH-]c1"
  logP (Prodrug): 5.37
